Assay: mitochondrial membrane potential change in A549 cells, profiling panel, cell-based, JC-1 fluorescence, basal, 24 h, 100 nL (AID 1138);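 also: A549 lung adenocarcinoma cells under basal conditions with no added stimulus; test concentration not given here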
Details: higher = more signal
For each of the compounds below, state its z-score.
Answers are plain numbers.

Some entries whose results are on file:
>>> reported_measurement("CC(C)[C@@H](OCc1ccccc1)[C@H](C)C=NOC[C@@H](O)[C@H]1O[C@@H]2OC(C)(C)O[C@@H]2[C@H]1O")
-0.958
>>> reported_measurement("O=C1C2=CC[C@H]3C(=O)N(C4CCCCC4)C(=O)[C@H]3[C@H]2[C@H](O)[C@@H]2O[C@H]12")
-1.65
>>> reported_measurement("COC(=O)CC=C[C@@H](C)[C@@H](C=NOC[C@@H](O)[C@H]1O[C@@H]2OC(C)(C)O[C@@H]2[C@H]1O)OC")
0.0187
>>> reported_measurement("CCOC(=O)[C@H](Cc1ccccc1)NC(=O)CCC1CC(OC(=O)NCc2cccc3ccccc23)CC2(CCCC(COC(=O)NCCOc3ccccc3)O2)O1 (some centres not stated)")
-0.16
>>> reported_measurement("CCOC(=O)[C@H](CC(C)C)NC(=O)CCC1CC(OC(=O)NCc2ccc3c(c2)OCO3)CC2(CCCC(COC(=O)NCc3ccccc3)O2)O1 (some centres not stated)")
-0.0369
>>> reported_measurement("COc1ccc(COC(=O)NN=C2C[C@@H](O)[C@@H](O)[C@@H]3[C@@H]4C(=O)N(C[C@@H]5CCCO5)C(=O)[C@@H]4CC[C@H]23)cc1")
-0.252

For each listed entry, give its z-score.
1. CC(CCN1CCc2nc(-c3ccccc3)c(-c3ccccc3)cc2C1)=NOC(C)CN1CCCc2nc(C)c(C)cc21 (configuration not stated)
2. CCOC(=O)CCN1C(=O)[C@H]2[C@@H]3C(=CC[C@H]2C1=O)C(=O)[C@H]1O[C@H]1[C@H]3O
3. CC(=O)OC[C@H]1O[C@H](CC=NOC[C@@H](O)COCc2ccco2)C=C[C@@H]1OC(C)=O

1. 3.46
2. 0.736
3. 0.548

* * *

Assay: HepG2 cell viability effects, profiling panel, calcein-AM fluorescence, 48 h, basal (AID 1164); also: test concentration not given here
Details: higher = more signal
Outcome: true (1) for z-score of at least -0.1; false (0) for anything lower.

>>> category_label("CC=CC1=C(CO)[C@H](O)[C@H]2O[C@H]2[C@@H]1O")
"true (1)"
>>> category_label("Cc1ccc2[nH]c3nc(CCCn4ccnc4-c4ccccc4)nnc3c2c1")
"false (0)"
>>> category_label("C[C@@H](c1ccccc1)N1C(=O)[C@H]2[C@H]3[C@H](O)[C@H](O)CC(=NOCc4ccccc4)[C@@H]3CC[C@H]2C1=O")
"false (0)"

Is z-score for CC(=O)OC[C@H]1O[C@H](CC=NOC[C@@H](O)COCc2ccco2)C=C[C@@H]1OC(C)=O at or above -0.1?
true (1)

* * *

Target: Follistatin (Homo sapiens) (UniProt P19883)
Sequence (P19883 whole entry, looked up): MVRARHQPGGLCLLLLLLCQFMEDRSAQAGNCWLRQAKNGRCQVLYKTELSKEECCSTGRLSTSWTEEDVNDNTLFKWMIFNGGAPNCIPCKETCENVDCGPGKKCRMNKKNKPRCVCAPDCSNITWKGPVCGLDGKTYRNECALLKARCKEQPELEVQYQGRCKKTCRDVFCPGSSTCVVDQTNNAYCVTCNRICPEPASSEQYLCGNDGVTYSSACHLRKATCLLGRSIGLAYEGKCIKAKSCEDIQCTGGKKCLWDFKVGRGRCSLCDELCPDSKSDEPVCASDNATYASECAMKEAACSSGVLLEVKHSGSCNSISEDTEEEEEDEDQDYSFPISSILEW
Assay: follistatin binders on small-molecule microarrays, primary screen, biochemical, small-molecule microarray, 635/667 nm fluorescence (AID 1132)
Settings: FST binding, 635 nm fluorescence, higher = more signal
observable: composite z-score
Give bare numbers.

These solved cases illustrate the format of a correct answer.
>>> reported_measurement("CC(CCN1CCCc2nc(C)c(C)cc21)=NO[C@H](C)c1cn([C@H](CO)Cc2ccccc2)nn1")
0.564
>>> reported_measurement("C=CC[C@@H]1C=C[C@H](ON=C2C[C@@H](O)[C@@H](O)[C@@H]3[C@@H]4C(=O)N(CC)C(=O)[C@@H]4CC[C@@H]23)[C@@H](CO)O1")
-0.707
>>> reported_measurement("CCOC(=O)CCN1C(=O)[C@H]2[C@H]3[C@H](O)[C@H](O)CC(=O)[C@@H]3CC[C@H]2C1=O")
0.64

Each of the following entries comes with a recorded value; kindly state composite z-score for each.
1. COC(OC)[C@@H](C)[C@H](OC)[C@@H](C)[C@H](OC)c1ccccc1
2. CO[C@H]1COC(=O)CCC[C@H](C)[C@H](OC)COC(=O)CC=C[C@@H]1C
3. CON(C)C(=O)c1nnc2c(n1)[nH]c1ccccc12
4. CC(C)CON=C1C[C@@H](O)[C@@H](O)[C@@H]2[C@@H]3C(=O)N([C@@H](C)c4ccccc4)C(=O)[C@@H]3CC[C@@H]12
5. CCN1C(C)=C(C(=O)OC)[C@@H](c2ccccc2)N2C(=O)[C@](O)(C(=O)OC)CC(C(C)=O)=C12

0.144
1.1
0.545
-0.319
0.398
